Reference source: patent US20060160869A1

# measured_on: MDM2 (Homo sapiens)
# Sequence (Q00987 whole entry): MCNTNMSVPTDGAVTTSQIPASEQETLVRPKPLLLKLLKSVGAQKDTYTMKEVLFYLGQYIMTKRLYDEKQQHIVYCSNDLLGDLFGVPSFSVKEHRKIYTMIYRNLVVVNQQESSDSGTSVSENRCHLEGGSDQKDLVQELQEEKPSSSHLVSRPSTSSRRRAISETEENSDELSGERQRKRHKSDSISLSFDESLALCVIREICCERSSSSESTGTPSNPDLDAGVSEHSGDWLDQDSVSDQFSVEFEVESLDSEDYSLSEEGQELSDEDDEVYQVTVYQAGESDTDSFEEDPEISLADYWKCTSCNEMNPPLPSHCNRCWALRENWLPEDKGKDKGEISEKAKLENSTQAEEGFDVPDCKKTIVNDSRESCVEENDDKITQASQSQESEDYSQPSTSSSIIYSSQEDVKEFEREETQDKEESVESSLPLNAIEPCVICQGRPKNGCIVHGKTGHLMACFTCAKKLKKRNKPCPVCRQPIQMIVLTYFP
# experiment_description: Plate-based E3 ligase assay, MDM2 autoubiquitination (MDM2-FLAG)
# Format: biochemical
# stated_conditions: Table 2; read-out: MDM2 IC50
reported_endpoint: IC50

Reference set, count: 3
compound O=C(c1ccc(CN(Cc2cccc(OC(F)(F)F)c2)c2nc(-c3ccc4ccccc4c3)cs2)cc1)N1CCNCC1 [compound 282] , IC50 observed: 1 to 20 µM

compound O=C(c1ccc(CN(Cc2cccc(OC(F)(F)F)c2)c2nc(-c3ccc(Br)cc3)cs2)cc1)N1CCNCC1 [compound 343] , IC50 observed: 1 to 20 µM

compound O=C(c1ccc(CN(CCOc2ccccc2)c2nc(-c3ccc(Br)cc3)cs2)cc1)N1CCNCC1 [compound 344] , IC50 observed: 1 to 20 µM

Now look at this one.
compound CCN(Cc1ccc(C(=O)NCC(=O)O)cc1)c1nc(-c2ccc(-c3ccccc3)cc2)cs1 [compound 193] , IC50 observed: 1 to 20 µM

* * *

# Tested on: p53 reporter system in p53 null H1299 cell line
# experiment_description: p53-dependent transcription reporter assay, H1299RE
# Assay type: cell-based
# stated_conditions: p53 −ve cell type; maximal fold induction over DMSO control
reported_endpoint: Fold Induction of p53 activity, H1299RE

compound O=C(c1ccc(CN(CCOc2ccccc2)c2nc(-c3ccc(Cl)c(Cl)c3)cs2)cc1)N1CCNCC1 , Fold Induction of p53 activity, H1299RE observed: c (c means 1.5 or less)

compound COc1cccc(-c2csc(N(CCOc3ccccc3)Cc3ccc(C(=O)N4CCNCC4)cc3)n2)c1 , Fold Induction of p53 activity, H1299RE observed: c (c means 1.5 or less)

compound COc1cccc(CN(Cc2ccc(C(=O)N3CCNCC3)cc2)c2nc(-c3ccc(Br)cc3)cs2)c1OC , Fold Induction of p53 activity, H1299RE observed: c (c means 1.5 or less)

compound COc1cccc(-c2csc(N(Cc3ccc(C(=O)N4CCNCC4)cc3)Cc3cccc(OC(F)(F)F)c3)n2)c1 , Fold Induction of p53 activity, H1299RE observed: c (c means 1.5 or less)

* * *

Recorded IC50 values (E2 (Ubch5c) (Homo sapiens, UniProt P61077)) are given below.

Given the compound COc1cccc(CN(Cc2ccc(C(=O)N3CCNCC3)cc2)c2nc(-c3ccc(Cl)c(Cl)c3)cs2)c1OC [compound 297] and test system E2 (Ubch5c) (Homo sapiens, UniProt P61077), the measured IC50 is ≥ 20 µM

Now look at this one.
Given the compound COc1cccc(CN(Cc2ccc(C(=O)N3CCNCC3)cc2)c2nc(-c3ccc(Br)cc3)cs2)c1OC [compound 353] and test system E2 (Ubch5c) (Homo sapiens, UniProt P61077), the measured IC50 is ≥ 20 µM

* * *

# measured_on: E3 (His-APC11/APC2, "APC") (Homo sapiens, UniProt Q9NYG5+Q9UJX6)
# Sequence (Q9NYG5 whole entry): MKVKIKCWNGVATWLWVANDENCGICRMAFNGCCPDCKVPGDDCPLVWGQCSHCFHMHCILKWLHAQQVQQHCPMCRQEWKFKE
# Sequence (Q9UJX6 whole entry): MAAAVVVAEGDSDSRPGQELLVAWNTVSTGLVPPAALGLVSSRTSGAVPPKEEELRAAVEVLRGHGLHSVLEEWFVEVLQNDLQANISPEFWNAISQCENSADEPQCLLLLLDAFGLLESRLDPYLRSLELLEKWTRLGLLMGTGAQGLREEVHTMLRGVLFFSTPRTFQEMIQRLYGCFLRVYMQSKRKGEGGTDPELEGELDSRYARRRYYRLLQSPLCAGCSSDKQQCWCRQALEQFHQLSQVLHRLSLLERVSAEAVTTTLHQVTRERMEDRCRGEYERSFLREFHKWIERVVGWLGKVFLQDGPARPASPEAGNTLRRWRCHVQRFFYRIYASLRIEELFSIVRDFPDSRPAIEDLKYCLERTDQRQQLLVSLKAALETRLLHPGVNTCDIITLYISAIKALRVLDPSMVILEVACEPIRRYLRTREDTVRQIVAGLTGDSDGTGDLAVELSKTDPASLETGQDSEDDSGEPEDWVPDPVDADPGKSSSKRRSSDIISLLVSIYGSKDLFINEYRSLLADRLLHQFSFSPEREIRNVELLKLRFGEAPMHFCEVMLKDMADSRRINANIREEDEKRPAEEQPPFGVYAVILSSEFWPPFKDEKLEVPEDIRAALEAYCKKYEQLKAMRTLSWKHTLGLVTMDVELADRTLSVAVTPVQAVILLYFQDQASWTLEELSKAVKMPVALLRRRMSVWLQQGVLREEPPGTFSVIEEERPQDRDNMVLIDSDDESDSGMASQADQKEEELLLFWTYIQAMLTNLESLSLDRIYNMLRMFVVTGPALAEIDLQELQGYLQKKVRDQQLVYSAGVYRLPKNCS
# experiment_description: Plate-based E3 ligase assay (APC FLAG), auto-ubiquitination
# Assay type: biochemical
# stated_conditions: Table 2; read-out: APC IC50
pIC50: −log10 of the molar value.
Examples of compounds with documented pIC50 follow.

Reference set, count: 4
Given the compound COc1ccc(-c2csc(N(CCOc3ccccc3)Cc3ccc(C(=O)N4CCNCC4)cc3)n2)cc1 [compound 223] and test system E3 (His-APC11/APC2, "APC") (Homo sapiens, UniProt Q9NYG5+Q9UJX6), the measured pIC50 is ≤ 4.70

Given the compound COc1cccc(CN(Cc2ccc(C(=O)N3CCNCC3)cc2)c2nc(-c3ccc(C)cc3)cs2)c1OC [compound 283] and test system E3 (His-APC11/APC2, "APC") (Homo sapiens, UniProt Q9NYG5+Q9UJX6), the measured pIC50 is ≤ 4.70

Given the compound O=C(c1ccc(CN(CCOc2ccccc2)c2nc(-c3ccc(Cl)c(Cl)c3)cs2)cc1)N1CCNCC1 [compound 360] and test system E3 (His-APC11/APC2, "APC") (Homo sapiens, UniProt Q9NYG5+Q9UJX6), the measured pIC50 is 4.70 to 6.00

Given the compound O=C(c1ccc(CN(c2nc(-c3ccc(Cl)cc3)cs2)c2cccc3ccccc23)cc1)N1CCNCC1 [compound 289] and test system E3 (His-APC11/APC2, "APC") (Homo sapiens, UniProt Q9NYG5+Q9UJX6), the measured pIC50 is ≤ 4.70

Next:
Given the compound CC(C)N(CCN(Cc1ccc(C(=O)N2CCNCC2)cc1)c1nc(-c2ccccc2Cl)cs1)C(C)C [compound 225] and test system E3 (His-APC11/APC2, "APC") (Homo sapiens, UniProt Q9NYG5+Q9UJX6), the measured pIC50 is ≤ 4.70

Given the compound COc1ccc(OC)c(-c2csc(N(Cc3ccc(C(=O)NCC(=O)O)cc3)c3ccccc3F)n2)c1 [compound 215] and test system E3 (His-APC11/APC2, "APC") (Homo sapiens, UniProt Q9NYG5+Q9UJX6), the measured pIC50 is 4.70 to 6.00

Given the compound COc1cccc(CN(Cc2ccc(C(=O)N3CCNCC3)cc2)c2nc(-c3ccc(Cl)c(Cl)c3)cs2)c1OC [compound 297] and test system E3 (His-APC11/APC2, "APC") (Homo sapiens, UniProt Q9NYG5+Q9UJX6), the measured pIC50 is 4.70 to 6.00

Given the compound COc1ccccc1-c1csc(N(CCN(C(C)C)C(C)C)Cc2ccc(C(=O)N3CCNCC3)cc2)n1 [compound 292] and test system E3 (His-APC11/APC2, "APC") (Homo sapiens, UniProt Q9NYG5+Q9UJX6), the measured pIC50 is ≤ 4.70

Given the compound COc1cccc(-c2csc(N(CCN(C(C)C)C(C)C)Cc3ccc(C(=O)N4CCNCC4)cc3)n2)c1 [compound 231] and test system E3 (His-APC11/APC2, "APC") (Homo sapiens, UniProt Q9NYG5+Q9UJX6), the measured pIC50 is ≤ 4.70

Given the compound CN(Cc1ccc(C(=O)NC(Cc2ccccc2)C(=O)O)cc1)c1nc(-c2ccc(Cl)cc2)cs1 (stereo not shown) [compound 15] and test system E3 (His-APC11/APC2, "APC") (Homo sapiens, UniProt Q9NYG5+Q9UJX6), the measured pIC50 is 4.70 to 6.00

Given the compound Cc1sc(N(C)Cc2ccc(C(=O)NCc3cccc(CN)c3)cc2)nc1-c1ccccc1 [compound 14] and test system E3 (His-APC11/APC2, "APC") (Homo sapiens, UniProt Q9NYG5+Q9UJX6), the measured pIC50 is ≤ 4.70
